Measured Property: logP

Brc1cc(Br)c(Oc2c(Br)cc(Br)c(Br)c2Br)cc1Br : 8.27
Brc1ccc(Oc2c(Br)cc(Br)cc2Br)c(Br)c1 : 7.24
Brc1ccc(Oc2ccc(Br)cc2Br)cc1 : 5.94

Okay, next one:
Query: Give the reported value of logP for this record: Brc1ccc(Oc2ccc(Br)c(Br)c2Br)c(Br)c1
Result: 7.37

====

Friendly reminder: log10 Koa below 3 is 1.0, at or above is 0.0.

The examples below pair each entry with its known result.
CC(C)CO : 0.0
CN : 1.0

Query: Consider CC(Cl)Cl . Does its log10 Koa lie strictly below 3?
Result: 1.0

Query: Consider C . Does its log10 Koa lie strictly below 3?
Result: 1.0

Query: Consider Clc1cc2cccc(Cl)c2cc1Cl . Does its log10 Koa lie strictly below 3?
Result: 0.0

Query: Consider CC(C)COCC(C)C . Does its log10 Koa lie strictly below 3?
Result: 0.0

Query: Consider Clc1ccc2c(Cl)c(Cl)ccc2c1Cl . Does its log10 Koa lie strictly below 3?
Result: 0.0

Query: Consider Clc1cc2oc3cc(Cl)c(Cl)cc3c2cc1Cl . Does its log10 Koa lie strictly below 3?
Result: 0.0

Query: Consider CCCCCC#N . Does its log10 Koa lie strictly below 3?
Result: 0.0

Query: Consider Clc1cc2oc3cc(Cl)c(Cl)c(Cl)c3c2c(Cl)c1Cl . Does its log10 Koa lie strictly below 3?
Result: 0.0

Query: Consider Clc1ccc(Cl)c(-c2cc(Cl)ccc2Cl)c1 . Does its log10 Koa lie strictly below 3?
Result: 0.0

Query: Consider Clc1ccc(-c2ccc(Cl)c(Cl)c2Cl)cc1Cl . Does its log10 Koa lie strictly below 3?
Result: 0.0

Query: Consider Brc1cccc(Br)c1Oc1ccccc1 . Does its log10 Koa lie strictly below 3?
Result: 0.0

Query: Consider ClCCl . Does its log10 Koa lie strictly below 3?
Result: 1.0

Query: Consider CC(Cl)(Cl)Cl . Does its log10 Koa lie strictly below 3?
Result: 1.0

Query: Consider Brc1ccc(Oc2ccc(Br)cc2)cc1 . Does its log10 Koa lie strictly below 3?
Result: 0.0

Query: Consider CCCCC . Does its log10 Koa lie strictly below 3?
Result: 1.0

====

Catalogue of melting point readings, one per entry.
Response body: numeric value in °C, unit text excluded.

As a guide, the following entries are already answered.
CCCCCCCCCCCCCCCCCCO : 59.5
c1ccc2c3c([nH]c2c1)CCCC3 : 120
CC1=CC(=O)C=CC1=O : 69
Nc1ccc(Nc2ccccc2)c2c1C(=O)c1ccccc1C2=O : 192
OCCNCCNCCO : 97.5
Cc1ccccc1NC(=N)Nc1ccccc1C : 179

Query: Give the reported value of melting point for this record: Cn1c([N+](=O)[O-])cnc1/C=C/c1ccnc(N)n1
Result: 234

Query: Give the reported value of melting point for this record: CC(C)NCC(O)COc1ccc(O)cc1 (stereo not given)
Result: 128

Query: Give the reported value of melting point for this record: C1=CC=CC=CC=C1
Result: -4.7

====

Measured Property: melting point (°C)
Response body: numeric value in °C, unit text excluded.

COS(=O)(=O)Cl : -70

Query: Give the reported value of melting point for this record: OCCCCCCCCCCl
Result: 28

Query: Give the reported value of melting point for this record: C[Si](C)(C)CC(=O)O
Result: 41

Query: Give the reported value of melting point for this record: CC(C)=NNc1ccccc1
Result: 42

Query: Give the reported value of melting point for this record: Cc1ccc(/N=N/c2c(O)ccc3ccccc23)c(C)c1
Result: 166

====

Catalogue of melting point readings, one per entry.
Response body: numeric value in °C, unit text excluded.

CC(CCCC(=O)O)C(=O)O (stereo not given) : 64
CC(C)OC(=O)C1(S(=O)(=O)c2ccc([N+](=O)[O-])cc2)CCC1 : 65.5
Cc1ccc(C(C)C)c(OC(=O)NCCC(C)C)c1 : 57
N#Cc1nn(-c2c(Cl)cc(C(F)(F)F)cc2Cl)c(N)c1S(=O)C(F)(F)F (stereo not given) : 200

Query: Give the reported value of melting point for this record: Cc1ccc(C(=O)NN)cc1
Result: 117

Query: Give the reported value of melting point for this record: O=C(O)CCc1ccco1
Result: 58

Query: Give the reported value of melting point for this record: CC(=O)O[C@H]1C[C@@]2(C)[C@@H](C[C@@H](O)[C@H]3[C@@]4(C)CC[C@@H](O)[C@@H](C)[C@@H]4CC[C@@]32C)/C1=C(\CCC=C(C)C)C(=O)O
Result: 192

Query: Give the reported value of melting point for this record: O=C1c2ccccc2C(=O)c2c1cc(O)c(O)c2O
Result: 313

Query: Give the reported value of melting point for this record: Nc1ccc(Nc2ccccc2)cc1
Result: 66

Query: Give the reported value of melting point for this record: CN(C)CCc1ccc(O)cc1
Result: 118

Query: Give the reported value of melting point for this record: c1ccc2c(c1)ccc1[nH]c3ccc4ccccc4c3c12
Result: 158

Query: Give the reported value of melting point for this record: C=CCC1(C(C)CCC)C(=O)NC(=O)NC1=O (stereo not given)
Result: 100

Query: Give the reported value of melting point for this record: CCOC(=O)[C@H](CCc1ccccc1)N[C@H]1CCc2ccccc2N(CC(=O)O)C1=O
Result: 148

Query: Give the reported value of melting point for this record: CC1(O)CCC(C(C)(C)O)CC1 (stereo not given)
Result: 158

====

Catalogue of log10 Koc (L/kg) readings, one per entry.
// no unit, no text: just the number

As a guide, the following entries are already answered.
O=C(O)C1C(C(=O)O)C2(Cl)C(Cl)=C(Cl)C1(Cl)C2(Cl)Cl (stereo not drawn) : 2.79
COC(=O)c1ccccc1 : 2.1
O=P(O)(O)CCCl : 0
CCNc1nc(Cl)nc(NC(C)(C)C)n1 : 2.32
CCN(CC)C(C)=O : 1.84

Query: Give the reported value of log10 Koc (L/kg) for this record: CNP(=O)(NC)Oc1ccccc1
Result: 1.51

Query: Give the reported value of log10 Koc (L/kg) for this record: Sc1nc2ccccc2s1
Result: 2.25

Query: Give the reported value of log10 Koc (L/kg) for this record: CCNNCC
Result: 1.18

====

Measured Property: boiling point (°C)
Response body: numeric value in °C, unit text excluded.

CC(C)(C)c1ccc(C(C)(C)C)cc1 : 238

Query: Give the reported value of boiling point for this record: OCC(F)(F)C(F)(F)C(F)(F)C(F)(F)C(F)(F)C(F)(F)C(F)(F)F
Result: 161

Query: Give the reported value of boiling point for this record: ClCC(Cl)C(Cl)Cl (configuration not stated)
Result: 180

Query: Give the reported value of boiling point for this record: CCCCCCCCCCCC(=O)OC
Result: 267

====

Catalogue of melting point readings, one per entry.
Response body: numeric value in °C, unit text excluded.

O=C(NO)c1ccccc1 : 128
CCCCCCCOC(=O)CC : -50.9
O=C1c2ccccc2-c2ccccc21 : 84

Query: Give the reported value of melting point for this record: COc1cc(OC)nc(Sc2cccc(Cl)c2C(=O)[O-])n1.[Na+]
Result: 248

Query: Give the reported value of melting point for this record: COc1cccc(CC(=O)O)c1
Result: 72

Query: Give the reported value of melting point for this record: C1COCO1
Result: -95

====

Measured Property: boiling point (°C)
Response body: numeric value in °C, unit text excluded.

As a guide, the following entries are already answered.
CC(=O)c1ccccn1 : 192
Cc1ccc2c(c1C)CCCC2 : 252
COc1ccccc1[N+](=O)[O-] : 277

Query: Give the reported value of boiling point for this record: CCCCCCCCC(=O)CCCCCCCC
Result: 252

Query: Give the reported value of boiling point for this record: CCCN(CCC)C(C)=O
Result: 210

Query: Give the reported value of boiling point for this record: Cc1ncsc1C
Result: 158

Query: Give the reported value of boiling point for this record: SC1CCCC1
Result: 132

====

Consider the following partition of reported log10 vapour pressure (mmHg) into named classes: label 0 = under -3, label 1 = from -3 up to 0.4, label 2 = 0.4 and over

CCCOP(=S)(OCCC)SCC(=O)N1CCCCC1C (centres undefined) : label 0
CCOc1ccc(N)cc1 : label 1
OCC(O)CCl (centres undefined) : label 1
CCCCCCCCCCCCCCCCCCCCCCCCCCCCCC : label 0
CC(Cl)C(Cl)Cl (centres undefined) : label 2
C1CNC1 : label 2

Query: Determine which band this compound sits in: O=[N+]([O-])c1ccc(Cl)c([N+](=O)[O-])c1
Result: label 0

====

Consider the following partition of reported melting point into named classes: Low = under 70 °C, Mid = from 70 °C up to 100 °C, High = 100 °C and over

The examples below pair each entry with its known result.
C[C@]12CC[C@H](O)C[C@@H]1CC[C@@H]1[C@@H]2[C@@H](O)C[C@@]2(C)[C@H]1CC[C@]2(O)C(=O)CO : High
CC(=O)c1cccc(O)c1 : Mid
S=C1CCCCCN1 : High
c1ccc2nnccc2c1 : Low
O=C(O)c1ccc(C(=O)O)c(C(=O)O)c1 : High
FC(F)C(F)(F)F : Low
CC1CCCC1 : Low
CN(C)C(=S)N(C)C : Mid
CC(C)CC#N : Low
O=C(O)CCSCCC(=O)O : High

// next entry
Query: Determine which band this compound sits in: O=C1CCC(=O)CC1
Result: Mid

Provenance of the data: the OPERA property sets (Mansouri et al. 2018)
